assay: metabolic stability in liver microsomes (standard microsomal incubation, LC/MS); type: in vitro ADME; conditions: 10 μM compound, 0.2 μM microsomal cytochrome P450, pH 7.4, 37° C, read-out: % Loss (amount of compound that was metabolically degraded)
PROPERTY_MEASURED: metabolised at 10 min, 10 µM (%)
Please state the figure in %; there is no need to write the unit.

# annotated cases, reported metabolised at 10 min, 10 µM shown
O=C1CC(Cc2ccncc2)(Cc2ccncc2)C(=O)N1C12CC3CC(CC(F)(C3)C1)C2 ... 75
O=C1CC(Cc2ccncc2)(Cc2ccncc2)C(=O)N1C12CC3(F)CC(F)(CC(F)(C3)C1)C2 ... 10

Alright, here's another compound for you.
*Q* What measured metabolised at 10 min, 10 µM goes with O=C1CC(Cc2ccncc2)(Cc2ccncc2)C(=O)N1C12CC3CC(F)(CC(F)(C3)C1)C2 ?
*A* 75
